- Tested System: B7-1/CD28 (Homo sapiens)
- Assay Info: CD28/B7-1 ELISA (B7-1/CD28 binding inhibition)
- Stated Conditions: CD28-Fc coated wells; B7-1-Fc-biotin/streptavidin-alkaline phosphatase detection complex; 1% DMSO
Reported IC50 values for the following compounds.
Answer format: numeric, µM implied, no suffix.

Answered cases to consult:
Cn1ncc2c3[nH]n(-c4ccc(C(=O)Nc5ccccc5CO)cc4)c(=O)c3c(-c3cccc(C(F)(F)F)c3)nc21 = 0.04
Cn1ncc2c3[nH]n(-c4ccc(C(=O)Nc5ccccc5O)cc4)c(=O)c3c(-c3cccc(C(F)(F)F)c3)nc21 = 0.017
Cn1ncc2c3[nH]n(-c4ccc(C(=O)N5CCCC(O)C5)cc4)c(=O)c3c(-c3cccc(C(F)(F)F)c3)nc21 (stereo not shown) = 0.39
CC1CCCN(C(=O)c2cccc(-n3[nH]c4c(c(-c5cccc(C(F)(F)F)c5)nc5c4cnn5C)c3=O)c2)C1 (stereo not shown) = 0.092

The reported B7-1/CD28 (Homo sapiens) IC50 of CN1CCN(C(=O)c2ccc(-n3[nH]c4c(c(-c5cccc(C(F)(F)F)c5)nc5c4cnn5C)c3=O)cc2)CC1 is 0.5

The reported B7-1/CD28 (Homo sapiens) IC50 of Cn1ncc2c3[nH]n(-c4cccc(C(=O)NCCOCCOCCN)c4)c(=O)c3c(-c3cccc(C(F)(F)F)c3)nc21 is 0.15

The reported B7-1/CD28 (Homo sapiens) IC50 of Cn1ncc2c3[nH]n(-c4cccc(C(=O)N5CCC(O)CC5)c4)c(=O)c3c(-c3cccc(C(F)(F)F)c3)nc21 is 0.105

====

- Tested System: B7-1/CD28 (Homo sapiens)
- Assay Info: CD28/B7-1 ELISA (B7-1/CD28 binding inhibition)
- Stated Conditions: CD28-Fc coated wells; B7-1-Fc-biotin/streptavidin-alkaline phosphatase detection complex; 1% DMSO
Property Name: pIC50
The scale used: pIC50 is minus the common logarithm of the concentration in molar units.

Answered cases to consult:
Cn1ncc2c3[nH]n(-c4cccc(C(=O)NCC5CC5)c4)c(=O)c3c(-c3cccc(C(F)(F)F)c3)nc21 = 7.10
Cn1ncc2c3[nH]n(-c4ccc(C(=O)NCCCCCO)cc4)c(=O)c3c(-c3cccc(C(F)(F)F)c3)nc21 = 7.04

The reported B7-1/CD28 (Homo sapiens) pIC50 of CCN(CC)C(=O)C1CCCN(C(=O)c2ccc(-n3[nH]c4c(c(-c5cccc(C(F)(F)F)c5)nc5c4cnn5C)c3=O)cc2)C1 (stereo not shown) is 6.54

The reported B7-1/CD28 (Homo sapiens) pIC50 of CC(=O)c1cccc(NC(=O)c2ccc(-n3[nH]c4c(c(-c5cccc(C(F)(F)F)c5)nc5c4cnn5C)c3=O)cc2)c1 is 7.36

====

Reported melting point values for the following molecules.

Looking up Cn1ncc2c3[nH]n(-c4ccc(C(=O)NCc5ccccc5)cc4)c(=O)c3c(-c3cccc(C(F)(F)F)c3)nc21 , I see its melting point listed as 189 to 192 °C

Looking up CC(=O)c1cccc(NC(=O)c2ccc(-n3[nH]c4c(c(-c5cccc(C(F)(F)F)c5)nc5c4cnn5C)c3=O)cc2)c1 , I see its melting point listed as 300 °C (dec.)

Looking up COC(=O)c1cccc(NC(=O)c2ccc(-n3[nH]c4c(c(-c5cccc(C(F)(F)F)c5)nc5c4cnn5C)c3=O)cc2)c1 , I see its melting point listed as 220 to 222 °C

Looking up Cn1ncc2c3[nH]n(-c4ccc(Cl)c(C(=O)N5CCC[C@@H]5C(=O)O)c4)c(=O)c3c(-c3cccc(C(F)(F)F)c3)nc21 , I see its melting point listed as 214 to 218 °C

Looking up Cn1ncc2c3[nH]n(-c4cccc(C(=O)NCc5ccc(N)cc5)c4)c(=O)c3c(-c3cccc(C(F)(F)F)c3)nc21 , I see its melting point listed as 183 °C (dec.)

Looking up Cn1ncc2c3[nH]n(-c4cccc(C(=O)NCc5ccc(O)c(O)c5)c4)c(=O)c3c(-c3cccc(C(F)(F)F)c3)nc21 , I see its melting point listed as 177.7 to 179.8 °C

Looking up Cn1ncc2c3[nH]n(-c4ccc(C(=O)N5CCCC(CO)C5)cc4)c(=O)c3c(-c3cccc(C(F)(F)F)c3)nc21 (centres unmarked) , I see its melting point listed as 189.8 to 192.7 °C

====

Reported melting point values for the following compounds.

Cn1ncc2c3[nH]n(-c4ccc(C(=O)Nc5ccc(O)c(O)c5)cc4)c(=O)c3c(-c3cccc(C(F)(F)F)c3)nc21 [Example 98] = 206 to 209 °C
CC(O)c1cccc(NC(=O)c2ccc(-n3[nH]c4c(c(-c5cccc(C(F)(F)F)c5)nc5c4cnn5C)c3=O)cc2F)c1 (centres unmarked) [Example 24] = > 350 °C
COC(=O)C1CCN(C(=O)c2ccc(-n3[nH]c4c(c(-c5cccc(C(F)(F)F)c5)nc5c4cnn5C)c3=O)cc2)CC1 [Example 26] = 187 °C (dec.)
COCc1cccc(NC(=O)c2ccc(-n3[nH]c4c(c(-c5cccc(C(F)(F)F)c5)nc5c4cnn5C)c3=O)cc2)c1 [Example 29] = 210 °C (dec.)

Here's the next entry for you.
Looking up COc1cc(CNC(=O)c2cccc(-n3[nH]c4c(c(-c5cccc(C(F)(F)F)c5)nc5c4cnn5C)c3=O)c2)ccc1O [Example 17] , I see its melting point listed as 172 to 176 °C

====

- Tested System: B7-1/CD28 (Homo sapiens)
- Sequence (P33681 35-242 limits assumed): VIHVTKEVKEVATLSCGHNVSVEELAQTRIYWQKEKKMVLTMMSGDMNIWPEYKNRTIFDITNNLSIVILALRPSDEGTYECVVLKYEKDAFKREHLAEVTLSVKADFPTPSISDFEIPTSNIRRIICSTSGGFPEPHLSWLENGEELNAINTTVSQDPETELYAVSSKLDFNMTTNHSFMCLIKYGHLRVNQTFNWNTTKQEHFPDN
- Assay Info: CD28/B7-1 ELISA (B7-1/CD28 binding inhibition)
- Stated Conditions: CD28-Fc coated wells; B7-1-Fc-biotin/streptavidin-alkaline phosphatase detection complex; 1% DMSO
- Description: Evaluation of B7-1/CD28 Binding Inhibition for Test Compounds Wells are coated with 300 ng CD28-Fc in carbonate buffer (pH 9.4) overnight at 4° C., blocked with 1% bovine serum albumin in tris-buffered saline (TBS) for 1 h at 22° C. and washed 3 times in TBS prior to assay. […] The inhibition constant (IC50) is calculated by subtracting background binding and comparing to uninhibited (DMSO alone) controls. […]
Property Name: IC50 (nM)
Answer format: numeric, nM implied, no suffix.

COCc1cccc(NC(=O)c2ccc(-n3[nH]c4c(c(-c5cccc(C(F)(F)F)c5)nc5c4cnn5C)c3=O)cc2)c1 [Example 29] = 110

Looking up Cn1ncc2c3[nH]n(-c4cccc(C(=O)Nc5ccc(F)c(F)c5)c4)c(=O)c3c(-c3cccc(C(F)(F)F)c3)nc21 [Example 47] , I see its IC50 listed as 280

Looking up Cn1ncc2c3[nH]n(-c4ccc(C(=O)NCCCCCN)cc4)c(=O)c3c(-c3cccc(C(F)(F)F)c3)nc21 [Example 39] , I see its IC50 listed as 140

Looking up Cn1ncc2c3[nH]n(-c4cccc(C(=O)N5CCCC5)c4)c(=O)c3c(-c3cccc(C(F)(F)F)c3)nc21 [Example 11] , I see its IC50 listed as 44

Looking up Cn1ncc2c3[nH]n(-c4cccc(C(=O)N5CCc6ccccc6C5)c4)c(=O)c3c(-c3cccc(C(F)(F)F)c3)nc21 [Example 52] , I see its IC50 listed as 300

Looking up Cn1ncc2c3[nH]n(-c4ccc(Cl)c(C(=O)N5CCC[C@@H]5C(=O)O)c4)c(=O)c3c(-c3cccc(C(F)(F)F)c3)nc21 [Example 22] , I see its IC50 listed as 44

Looking up COC(=O)[C@H]1CCCN1C(=O)c1cccc(-n2[nH]c3c(c(-c4cccc(C(F)(F)F)c4)nc4c3cnn4C)c2=O)c1 [Example 53] , I see its IC50 listed as 270

====

Reported pIC50 values for the following compounds.
- Tested System: B7-1/CD28 (Homo sapiens, UniProt P33681)
- Assay Info: CD28/B7-1 ELISA (B7-1/CD28 binding inhibition)
- Stated Conditions: CD28-Fc coated wells; B7-1-Fc-biotin/streptavidin-alkaline phosphatase detection complex; 1% DMSO
The scale used: pIC50 is minus the common logarithm of the concentration in molar units.

Answered cases to consult:
CC(O)CNC(=O)c1cccc(-n2[nH]c3c(c(-c4cccc(C(F)(F)F)c4)nc4c3cnn4C)c2=O)c1 (stereo not shown) = 7.35
Cn1ncc2c3[nH]n(-c4cccc(C(=O)Nc5cccc(CO)c5)c4)c(=O)c3c(-c3cccc(C(F)(F)F)c3)nc21 = 7.00
CC(O)c1cccc(NC(=O)c2ccc(-n3[nH]c4c(c(-c5cccc(C(F)(F)F)c5)nc5c4cnn5C)c3=O)cc2)c1 (stereo not shown) = 8.52

Here's the next entry for you.
The reported B7-1/CD28 (Homo sapiens, UniProt P33681) pIC50 of COCCCNC(=O)c1cccc(-n2[nH]c3c(c(-c4cccc(C(F)(F)F)c4)nc4c3cnn4C)c2=O)c1 is 6.74
